Molecular target: human 5-HT2B receptor (Homo sapiens, UniProt P41595)
Sequence (P41595 whole entry): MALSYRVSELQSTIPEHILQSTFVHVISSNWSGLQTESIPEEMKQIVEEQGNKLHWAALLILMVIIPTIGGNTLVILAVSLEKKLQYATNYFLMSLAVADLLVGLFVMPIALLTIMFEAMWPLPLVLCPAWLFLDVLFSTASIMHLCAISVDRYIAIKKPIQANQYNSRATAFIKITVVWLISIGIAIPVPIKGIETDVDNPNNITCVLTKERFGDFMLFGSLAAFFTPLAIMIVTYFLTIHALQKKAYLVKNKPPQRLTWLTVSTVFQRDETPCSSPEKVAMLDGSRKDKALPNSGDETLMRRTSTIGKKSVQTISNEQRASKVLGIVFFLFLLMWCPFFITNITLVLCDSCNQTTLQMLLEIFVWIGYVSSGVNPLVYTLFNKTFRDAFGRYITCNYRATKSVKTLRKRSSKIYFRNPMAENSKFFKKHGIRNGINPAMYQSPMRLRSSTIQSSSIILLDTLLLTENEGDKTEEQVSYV
Format: binding
Conditions: read-out: 5-HT2B receptor affinity Ki; as quoted in text from Table
pKi: −log10 of the molar value.
ENDPOINT LABEL: pKi

Prompt line: Return reported pKi. Input molecule: CN(C)[C@@H]1Cc2ccccc2[C@@H](c2ccccc2)C1 (relative stereo) [(−)-trans-PAT]
Response line: ~5.92

====

Below, each of the compounds is paired with its reported Ki value.
Biological target: human 5-HT2A receptor (Homo sapiens, UniProt P28223)
Sequence (P28223 whole entry): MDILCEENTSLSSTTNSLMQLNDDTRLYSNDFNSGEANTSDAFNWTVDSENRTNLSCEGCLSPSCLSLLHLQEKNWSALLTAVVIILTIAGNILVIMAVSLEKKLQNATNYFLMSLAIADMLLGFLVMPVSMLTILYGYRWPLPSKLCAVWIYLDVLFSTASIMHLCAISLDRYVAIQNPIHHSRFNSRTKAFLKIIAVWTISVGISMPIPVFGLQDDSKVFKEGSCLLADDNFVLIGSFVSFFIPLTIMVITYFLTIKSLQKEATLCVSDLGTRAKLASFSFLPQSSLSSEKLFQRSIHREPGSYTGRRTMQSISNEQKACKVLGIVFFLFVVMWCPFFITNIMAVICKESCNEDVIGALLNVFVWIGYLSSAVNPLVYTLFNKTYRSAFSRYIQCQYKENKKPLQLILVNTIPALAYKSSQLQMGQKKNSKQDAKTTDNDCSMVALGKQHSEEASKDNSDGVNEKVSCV
Format: binding
Conditions: read-out: 5-HT2A Ki ± SEM; competition vs 1.0 nM [3H]-ketanserin
# value in nM; strip the unit string

Consider the worked cases shown below.
> print(dat)
                                   compound  endpoint.result
1  CN(C)[C@H]1Cc2ccccc2[C@@H](c2ccccc2)C1 [(+)-cis-PAT]              780
2  CN(C)[C@@H]1Cc2ccccc2[C@H](c2ccccc2)C1 [(−)-cis-PAT]             1500

Lab note: next compound to report on.
Prompt line: Find the measured Ki of CN(C)[C@@H]1Cc2ccccc2[C@@H](c2ccccc2)C1 (relative stereo) [(−)-trans-PAT] and report it.
Response line: 410

All values here come from paper PMC2749987.
